Measured Fusogenicity Rank of individual entries
System: Mfn2 null MEFs
ASSAY DETAILS: Mitochondrial elongation (aspect ratio) fusogenicity assay
Assay type: cell-based, mouse
CONDITION SUMMARY: rank order of aspect ratio among 44 soluble library compounds

Below: 3 compounds and their reported Fusogenicity Rank.
[[record]]
compound = "Cc1ccc(C(=O)C(C)Sc2nnc3c(=O)n(-c4ccc(C)c(C)c4)ccn23)cc1C (stereo not shown) [drawing 240]"
observed_property = "Fusogenicity Rank"
reading = 19

[[record]]
compound = "CC(/N=N/C(=N)SC1CC(=O)N(c2cccc(C(=O)O)c2)C1=O)c1ccccc1 (stereo not shown) [drawing 247]"
observed_property = "Fusogenicity Rank"
reading = 31

[[record]]
compound = "CC(Sc1nnc(N2CCOCC2)n1Cc1ccccc1)C(=O)Nc1ccc2c(c1)OCCO2 (stereo not shown) [drawing 226]"
observed_property = "Fusogenicity Rank"
reading = 6


Give Fusogenicity Rank for the following compound: Cc1ccc(SC2CCN(Cc3cc4n(n3)CCNC4)CC2)cc1 [drawing 246]
39

Sourced from patent US10844023B2
